# Test system: Liver microsomes
# protocol: Metabolic stability in rat liver microsomes assessed as intrinsic clearance per […] of protein
# Format: ADME, Microsome
Assignment: determine reported clearance for the given compounds.
Reply numerically in µL/min/mg, unit not repeated.

Task: Send back Liver microsomes clearance of CNS(=O)(=O)c1ccc(N2CCOCC2)c(C(=O)N2CCN(c3ccc(C(C)=O)cc3F)CC2)c1 only.
Output: 106

Task: Send back Liver microsomes clearance of CC(=O)c1ccc(N2CCN(C(=O)c3cc([N+](=O)[O-])ccc3N3CCOCC3)CC2)c(F)c1 only.
Output: 106

Task: Send back Liver microsomes clearance of CC(=O)c1ccc(N2CCN(C(=O)c3cc(S(C)(=O)=O)ccc3N3CCOCC3)CC2)c(F)c1 only.
Output: 40

Task: Send back Liver microsomes clearance of CC(=O)c1ccc(N2CCN(C(=O)c3cc(C#N)ccc3N3CCOCC3)CC2)c(F)c1 only.
Output: 53

====

# measured on: Cytochrome P450 2D6 (Homo sapiens)
# Sequence (P10635 whole entry): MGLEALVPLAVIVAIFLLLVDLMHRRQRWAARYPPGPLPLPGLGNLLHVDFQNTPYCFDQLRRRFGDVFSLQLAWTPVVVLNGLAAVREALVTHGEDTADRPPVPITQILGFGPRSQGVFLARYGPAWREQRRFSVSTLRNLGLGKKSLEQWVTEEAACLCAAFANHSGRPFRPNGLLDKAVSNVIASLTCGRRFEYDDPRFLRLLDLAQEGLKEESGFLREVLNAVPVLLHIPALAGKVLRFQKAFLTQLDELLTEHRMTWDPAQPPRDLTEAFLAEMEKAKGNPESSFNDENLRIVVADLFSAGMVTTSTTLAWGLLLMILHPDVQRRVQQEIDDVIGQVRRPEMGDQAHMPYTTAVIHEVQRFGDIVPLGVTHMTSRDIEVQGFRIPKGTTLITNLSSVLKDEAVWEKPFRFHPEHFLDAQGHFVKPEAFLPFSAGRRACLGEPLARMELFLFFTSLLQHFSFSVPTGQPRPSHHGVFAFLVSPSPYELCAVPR
pIC50: −log10 of the molar value.
endpoint name: pIC50

Task: Name the recorded pIC50 of the compound listed here: CS(=O)(=O)c1ccc(OCC2CC2)c(C(=O)N2CCN(c3ccc(C#N)cc3F)CC2)c1
Output: < 4.54

====

# measured on: Sodium- and chloride-dependent glycine transporter 2 (Homo sapiens, UniProt Q9Y345)
# Sequence (Q9Y345 whole entry): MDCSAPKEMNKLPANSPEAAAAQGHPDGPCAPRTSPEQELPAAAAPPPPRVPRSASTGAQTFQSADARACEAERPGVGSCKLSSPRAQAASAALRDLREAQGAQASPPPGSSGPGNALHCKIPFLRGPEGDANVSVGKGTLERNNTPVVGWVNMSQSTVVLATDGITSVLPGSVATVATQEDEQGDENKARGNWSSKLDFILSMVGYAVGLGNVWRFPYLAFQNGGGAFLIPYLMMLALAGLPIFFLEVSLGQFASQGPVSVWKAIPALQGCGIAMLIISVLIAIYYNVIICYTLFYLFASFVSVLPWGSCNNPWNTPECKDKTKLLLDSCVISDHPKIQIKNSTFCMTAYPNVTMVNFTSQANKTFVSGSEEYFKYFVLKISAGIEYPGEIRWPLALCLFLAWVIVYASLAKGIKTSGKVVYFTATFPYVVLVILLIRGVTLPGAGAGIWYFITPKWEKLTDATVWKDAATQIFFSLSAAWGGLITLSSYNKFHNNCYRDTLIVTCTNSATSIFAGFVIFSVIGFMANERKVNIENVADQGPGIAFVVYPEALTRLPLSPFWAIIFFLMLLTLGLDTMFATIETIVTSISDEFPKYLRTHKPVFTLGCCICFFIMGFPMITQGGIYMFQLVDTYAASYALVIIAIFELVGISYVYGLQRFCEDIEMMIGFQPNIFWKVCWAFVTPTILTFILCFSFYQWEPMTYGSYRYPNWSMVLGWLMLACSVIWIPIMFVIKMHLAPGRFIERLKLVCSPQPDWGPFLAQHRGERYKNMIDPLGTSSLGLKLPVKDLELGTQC
# protocol: Inhibition of [3H]glycine uptake at human glycine transporter 2 expressed in CHO cells by scintillation counter
Assignment: determine reported EC50 for the given molecules.
Reply numerically in µM, unit not repeated.

Task: Name the recorded EC50 of the molecule listed here: O=C(c1cc([N+](=O)[O-])ccc1N1CCOCC1)N1CCN(c2ccc(C(F)(F)F)cc2)CC1
Output: 3.3

Task: Name the recorded EC50 of the molecule listed here: CC(=O)c1ccc(N2CCN(C(=O)c3cc(C(F)(F)F)ccc3N3CCOCC3)CC2)c(F)c1
Output: 11

====

# protocol: Clearance in mouse at 2 mg/kg, iv
# Assay type: ADME, organism-based
# Parameters: dose 2 mg/kg, route intravenous
# condition details: in vivo
endpoint name: clearance (mL/min/kg)
Reply numerically in mL/min/kg, unit not repeated.

Task: Name the recorded clearance of the compound listed here: CS(=O)(=O)c1ccc(OCC2CC2)c(C(=O)N2CCN(c3ccc(C#N)cc3F)CC2)c1
Output: 9.5

====

# measured on: Sodium- and chloride-dependent glycine transporter 1 (Homo sapiens)
# Sequence (P48067 whole entry): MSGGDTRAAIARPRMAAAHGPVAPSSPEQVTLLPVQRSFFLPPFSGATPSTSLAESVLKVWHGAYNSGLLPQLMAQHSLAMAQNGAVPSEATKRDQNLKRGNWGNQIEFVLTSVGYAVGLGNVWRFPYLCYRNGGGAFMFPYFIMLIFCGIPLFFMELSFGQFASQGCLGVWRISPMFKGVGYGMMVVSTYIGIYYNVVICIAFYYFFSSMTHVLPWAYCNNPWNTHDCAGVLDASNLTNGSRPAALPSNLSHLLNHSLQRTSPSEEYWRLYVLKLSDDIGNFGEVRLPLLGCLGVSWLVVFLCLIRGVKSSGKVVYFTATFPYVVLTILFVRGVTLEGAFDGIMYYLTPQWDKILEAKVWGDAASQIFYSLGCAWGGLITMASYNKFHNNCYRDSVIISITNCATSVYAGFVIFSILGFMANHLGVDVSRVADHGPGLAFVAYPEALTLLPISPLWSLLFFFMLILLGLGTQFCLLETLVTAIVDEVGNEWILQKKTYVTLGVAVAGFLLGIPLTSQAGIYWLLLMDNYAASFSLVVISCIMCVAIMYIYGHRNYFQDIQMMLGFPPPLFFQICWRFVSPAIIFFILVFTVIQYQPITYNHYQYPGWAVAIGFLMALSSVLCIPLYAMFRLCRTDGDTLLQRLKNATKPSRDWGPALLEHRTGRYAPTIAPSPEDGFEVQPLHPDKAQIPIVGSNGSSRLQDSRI
# protocol: Inhibition of [3H]glycine uptake at human glycine transporter 1 expressed in CHO cells by scintillation counter
endpoint name: pEC50
Please note pEC50 is a logarithmic value: minus log10 of concentration in mol/L. Answer with that number alone.

Task: Name the recorded pEC50 of the compound listed here: CC(=O)c1ccc(N2CCN(C(=O)c3cc([N+](=O)[O-])ccc3N3CCOCC3)CC2)c(F)c1
Output: 7.82

Task: Name the recorded pEC50 of the compound listed here: CC(=O)c1ccc(N2CCN(C(=O)c3cc([N+](=O)[O-])ccc3N(C)C)CC2)c(F)c1
Output: 6.30

Task: Name the recorded pEC50 of the compound listed here: CC(=O)c1ccc(N2CCN(C(=O)c3cc(S(C)(=O)=O)ccc3OC(C)C)CC2)c(F)c1
Output: 7.41

Task: Name the recorded pEC50 of the compound listed here: CS(=O)(=O)c1ccc(N2CCOCC2)c(C(=O)N2CCN(c3ccc(C(F)(F)F)cc3)CC2)c1
Output: 7.35

Task: Name the recorded pEC50 of the compound listed here: N#Cc1ccc(N2CCN(C(=O)c3cc([N+](=O)[O-])ccc3N3CCOCC3)CC2)cc1
Output: 7.11

====

# measured on: Sodium- and chloride-dependent glycine transporter 1 (Homo sapiens)
# Sequence (P48067 whole entry): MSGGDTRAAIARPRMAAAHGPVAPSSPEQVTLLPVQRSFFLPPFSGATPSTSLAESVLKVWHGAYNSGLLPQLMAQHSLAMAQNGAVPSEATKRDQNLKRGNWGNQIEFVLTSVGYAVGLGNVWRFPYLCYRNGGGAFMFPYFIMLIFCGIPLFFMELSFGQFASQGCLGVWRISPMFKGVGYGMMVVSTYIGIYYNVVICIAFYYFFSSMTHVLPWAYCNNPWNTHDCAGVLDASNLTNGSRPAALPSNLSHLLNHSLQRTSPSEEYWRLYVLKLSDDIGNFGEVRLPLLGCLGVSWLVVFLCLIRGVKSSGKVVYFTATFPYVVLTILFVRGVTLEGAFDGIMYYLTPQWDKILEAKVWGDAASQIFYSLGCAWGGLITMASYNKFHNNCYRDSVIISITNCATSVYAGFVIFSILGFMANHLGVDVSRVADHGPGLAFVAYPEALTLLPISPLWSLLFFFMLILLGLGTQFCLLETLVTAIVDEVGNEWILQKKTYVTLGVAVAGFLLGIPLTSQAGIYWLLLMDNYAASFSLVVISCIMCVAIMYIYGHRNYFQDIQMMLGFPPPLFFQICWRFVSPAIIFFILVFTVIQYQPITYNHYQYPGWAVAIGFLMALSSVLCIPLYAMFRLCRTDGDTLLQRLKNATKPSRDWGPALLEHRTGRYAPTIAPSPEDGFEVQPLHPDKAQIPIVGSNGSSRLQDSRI
# protocol: Inhibition of [3H]glycine uptake at human glycine transporter 1 expressed in CHO cells by scintillation counter
// boundary case: EC50 equal to 100 nM maps to false; strictly smaller maps to true

Task: Is 100 nM strictly greater than the compound's reported EC50? compound: CS(=O)(=O)c1ccc(N2CCN(C(=O)c3cc([N+](=O)[O-])ccc3N3CCOCC3)CC2)cc1
Output: false

Task: Is 100 nM strictly greater than the compound's reported EC50? compound: CC(=O)c1ccc(N2CCN(C(=O)c3cc(C)ccc3N3CCOCC3)CC2)c(F)c1
Output: false

Task: Is 100 nM strictly greater than the compound's reported EC50? compound: CS(=O)(=O)c1ccc(OCC2CC2)c(C(=O)N2CCN(c3ccc(C#N)cc3F)CC2)c1
Output: true

Task: Is 100 nM strictly greater than the compound's reported EC50? compound: CC(=O)c1ccc(N2CCN(C(=O)c3cc(C#N)ccc3N3CCOCC3)CC2)c(F)c1
Output: false

Task: Is 100 nM strictly greater than the compound's reported EC50? compound: COc1ccc(N2CCN(C(=O)c3cc([N+](=O)[O-])ccc3N3CCOCC3)CC2)cc1
Output: false

Task: Is 100 nM strictly greater than the compound's reported EC50? compound: CNc1ccc([N+](=O)[O-])cc1C(=O)N1CCN(c2ccc(C(C)=O)cc2F)CC1
Output: false

====

Assignment: determine reported Ratio EC50 for the given compounds.
# Species on record: Homo sapiens
# protocol: Selectivity ratio of IC50 for human glycine transporter 2 to IC50 for human glycine transporter 1

Task: Name the recorded Ratio EC50 of the compound listed here: CC(=O)c1ccc(N2CCN(C(=O)c3cc(Br)ccc3N3CCOCC3)CC2)c(F)c1
Output: < 0.2

Task: Name the recorded Ratio EC50 of the compound listed here: CC(=O)c1ccc(N2CCN(C(=O)c3cc(S(C)(=O)=O)ccc3N3CCOCC3)CC2)c(F)c1
Output: > 417

Task: Name the recorded Ratio EC50 of the compound listed here: CNS(=O)(=O)c1ccc(N2CCOCC2)c(C(=O)N2CCN(c3ccc(C(C)=O)cc3F)CC2)c1
Output: > 300

Task: Name the recorded Ratio EC50 of the compound listed here: CC(=O)c1ccc(N2CCN(C(=O)c3cc(S(N)(=O)=O)ccc3N3CCOCC3)CC2)c(F)c1
Output: > 250
